# System: HLA-A*02:01 (Homo sapiens, UniProt P04439, D140Y/D185E/D98H/E176V/E277Q/G131W/G231S/I119V/I121R/I166T/I218V/L300P/L318F/N151K/N90K/P208A/P217A/Q86G/Q94H/R138H/R169H/T345S)
# Protocol Summary: MHC binding assay: UV-ligand exchange with beta2m ELISA (peptide exchange yield)
# Applied Conditions: binding to HLA-A*02:01
Quantity Measured: Peptide exchange (MHC class I binding score, peptide exchange yield)

Example entries begin here.
* 434 (KVSNSGITRV; listed as Homo sapiens) [compound 434] | “++” (≥20% = ++)
* 376 (AMFESSQNVLL; listed as Homo sapiens) [compound 376] | “++” (≥20% = ++)
* 74 (ALLDPEVLSIFV; listed as Homo sapiens) [compound 74] | “+++” (≥50 = +++)
* 94 (YLIDIKTIAI; listed as Homo sapiens) [compound 94] | “++” (≥20% = ++)
* 601 (SAFPFPVTV; listed as Homo sapiens) [compound 601] | “+++” (≥50 = +++)
* 375 (SLTETIEGV; listed as Homo sapiens) [compound 375] | “++” (≥20% = ++)

Which Peptide exchange (MHC class I binding score, peptide exchange yield) is listed for 467 (FLAKDFNFL; listed as Homo sapiens) [compound 467] ? “+++” (≥50 = +++)

Can you handle 281 (ILRESTEEL; listed as Homo sapiens) [compound 281] next? “+++” (≥50 = +++)

Can you handle 6 (VLVSDGVHSV; listed as Homo sapiens) [compound 6] next? “+++” (≥50 = +++)

###

# System: HLA-A*02:01 (Homo sapiens, UniProt P04439, D140Y/D185E/D98H/E176V/E277Q/G131W/G231S/I119V/I121R/I166T/I218V/L300P/L318F/N151K/N90K/P208A/P217A/Q86G/Q94H/R138H/R169H/T345S)
# Protocol Summary: MHC binding assay: UV-ligand exchange with beta2m ELISA (peptide exchange yield)
# Applied Conditions: binding to HLA-A*02:01
Quantity Measured: Peptide exchange (MHC class I binding score, peptide exchange yield)

Example entries begin here.
- 556 (FLTDLEDLTL; listed as Homo sapiens) [compound 556]: “+++” (≥50 = +++)
- 551 (KLYESLLPFA; listed as Homo sapiens) [compound 551]: “+++” (≥50 = +++)
- 460 (AMLEKNYKL; listed as Homo sapiens) [compound 460]: “++++” (≥75% = ++++)
- 618 (VLFDSESIGIYV; listed as Homo sapiens) [compound 618]: “+++” (≥50 = +++)
- 254 (TLLAFIMEL; listed as Homo sapiens) [compound 254]: “+++” (≥50 = +++)

Which Peptide exchange (MHC class I binding score, peptide exchange yield) is listed for 235 (YLNDLHEVLL; listed as Homo sapiens) [compound 235] ? “++++” (≥75% = ++++)

Can you handle 395 (ALALGGIAVV; listed as Homo sapiens) [compound 395] next? “++++” (≥75% = ++++)

###

# System: HLA-A*02:01 (Homo sapiens, UniProt P04439, D140Y/D185E/D98H/E176V/E277Q/G131W/G231S/I119V/I121R/I166T/I218V/L300P/L318F/N151K/N90K/P208A/P217A/Q86G/Q94H/R138H/R169H/T345S)
# Protocol Summary: MHC binding assay: UV-ligand exchange with beta2m ELISA (peptide exchange yield)
# Applied Conditions: binding to HLA-A*02:01
Quantity Measured: Peptide exchange (MHC class I binding score, peptide exchange yield)

* 378 (ALGYFVPYV; listed as Homo sapiens) [compound 378] | “+++” (≥50 = +++)
* 91 (IMQDFPAEIFL; listed as Homo sapiens) [compound 91] | “++++” (≥75% = ++++)
* 465 (QLCDLNAEL; listed as Homo sapiens) [compound 465] | “+++” (≥50 = +++)
* 305 (SIANFSEFYV; listed as Homo sapiens) [compound 305] | “++++” (≥75% = ++++)

Which Peptide exchange (MHC class I binding score, peptide exchange yield) is listed for 7 (SLVGLLLYL; listed as Homo sapiens) [compound 7] ? “++++” (≥75% = ++++)

Can you handle 271 (LVYPLELYPA; listed as Homo sapiens) [compound 271] next? “+++” (≥50 = +++)

Can you handle 377 (FLLDSSASV; listed as Homo sapiens) [compound 377] next? “++” (≥20% = ++)

###

# System: HLA-A*02:01 (Homo sapiens, UniProt P04439, D140Y/D185E/D98H/E176V/E277Q/G131W/G231S/I119V/I121R/I166T/I218V/L300P/L318F/N151K/N90K/P208A/P217A/Q86G/Q94H/R138H/R169H/T345S)
# Protocol Summary: MHC binding assay: UV-ligand exchange with beta2m ELISA (peptide exchange yield)
# Applied Conditions: binding to HLA-A*02:01
Quantity Measured: Peptide exchange (MHC class I binding score, peptide exchange yield)

Example entries begin here.
- 205 (SLYPGTETMGL; listed as Homo sapiens) [compound 205]: “+++” (≥50 = +++)
- 216 (NLWEDPYYL; listed as Homo sapiens) [compound 216]: “+++” (≥50 = +++)
- 409 (LLDAMNYHL; listed as Homo sapiens) [compound 409]: “++” (≥20% = ++)
- 530 (VMYADIGGMDI; listed as Homo sapiens) [compound 530]: “+++” (≥50 = +++)

Kindly review the next substance as well.
Which Peptide exchange (MHC class I binding score, peptide exchange yield) is listed for 393 (GLLDTQTSQVLTA; listed as Homo sapiens) [compound 393] ? “++” (≥20% = ++)

###

# System: HLA-A*02:01 (Homo sapiens, UniProt P04439, D140Y/D185E/D98H/E176V/E277Q/G131W/G231S/I119V/I121R/I166T/I218V/L300P/L318F/N151K/N90K/P208A/P217A/Q86G/Q94H/R138H/R169H/T345S)
# Protocol Summary: MHC binding assay: UV-ligand exchange with beta2m ELISA (peptide exchange yield)
# Applied Conditions: binding to HLA-A*02:01
Quantity Measured: Peptide exchange (MHC class I binding score, peptide exchange yield)

Example entries begin here.
• 162 (YQQAQVPSV; listed as Homo sapiens) [compound 162] = “+++” (≥50 = +++)
• 303 (AILPQLFMV; listed as Homo sapiens) [compound 303] = “++++” (≥75% = ++++)
• 178 (ALTEIAFVV; listed as Homo sapiens) [compound 178] = “++++” (≥75% = ++++)
• 61 (FLQGYQLHL; listed as Homo sapiens) [compound 61] = “++++” (≥75% = ++++)
• 23 (VLLDDIFAQL; listed as Homo sapiens) [compound 23] = “+++” (≥50 = +++)
• 486 (AVMESIQGV; listed as Homo sapiens) [compound 486] = “+++” (≥50 = +++)
• 370 (SLLQDLVSV; listed as Homo sapiens) [compound 370] = “+++” (≥50 = +++)
• 41 (SLMPHIPGL; listed as Homo sapiens) [compound 41] = “+++” (≥50 = +++)

Kindly review the next substance as well.
Which Peptide exchange (MHC class I binding score, peptide exchange yield) is listed for 489 (KMWEELPEVV; listed as Homo sapiens) [compound 489] ? “+++” (≥50 = +++)

###

# System: HLA-A*02:01 (Homo sapiens, UniProt P04439, D140Y/D185E/D98H/E176V/E277Q/G131W/G231S/I119V/I121R/I166T/I218V/L300P/L318F/N151K/N90K/P208A/P217A/Q86G/Q94H/R138H/R169H/T345S)
# Protocol Summary: MHC binding assay: UV-ligand exchange with beta2m ELISA (peptide exchange yield)
# Applied Conditions: binding to HLA-A*02:01
Quantity Measured: Peptide exchange (MHC class I binding score, peptide exchange yield)

Example entries begin here.
• 103 (TLAEEVVAL; listed as Homo sapiens) [compound 103] = “+++” (≥50 = +++)
• 607 (RLYSGISGLEL; listed as Homo sapiens) [compound 607] = “+++” (≥50 = +++)
• 444 (GLLRDEALAEV; listed as Homo sapiens) [compound 444] = “+++” (≥50 = +++)
• 288 (NLINEINGV; listed as Homo sapiens) [compound 288] = “+++” (≥50 = +++)
• 585 (ALWDLAADKQTL; listed as Homo sapiens) [compound 585] = “++++” (≥75% = ++++)

Kindly review the next substance as well.
Which Peptide exchange (MHC class I binding score, peptide exchange yield) is listed for 610 (LLAPTPYIIGV; listed as Homo sapiens) [compound 610] ? “+++” (≥50 = +++)
